Reference source: paper PMC6005765

- target-desc: μ opioid receptor (UniProt P35372)
- Sequence (P35372 whole entry): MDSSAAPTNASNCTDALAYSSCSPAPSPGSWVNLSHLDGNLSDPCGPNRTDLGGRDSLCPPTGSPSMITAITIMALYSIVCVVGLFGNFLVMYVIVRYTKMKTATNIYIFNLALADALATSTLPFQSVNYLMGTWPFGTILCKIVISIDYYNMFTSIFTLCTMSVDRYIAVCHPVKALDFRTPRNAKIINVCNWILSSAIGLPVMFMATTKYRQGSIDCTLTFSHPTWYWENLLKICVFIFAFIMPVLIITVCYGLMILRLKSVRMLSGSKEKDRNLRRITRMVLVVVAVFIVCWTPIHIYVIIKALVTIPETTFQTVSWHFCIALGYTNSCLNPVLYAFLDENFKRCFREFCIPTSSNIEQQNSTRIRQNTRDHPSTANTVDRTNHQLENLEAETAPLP
Starred links: 1 amine or outer side, 2 acyl side, 3 side chain; linkers in the order of their positions; H or OH if unused. Non-standard residues stand in square brackets, D forms with d. No end group written: not given here. Phe(2-(4-Cl-phenyl)) = O=C([C@H](Cc1ccccc1-c1ccc(Cl)cc1)N[*:1])[*:2]; Phe(2-(3-thienyl)) = O=C([C@H](Cc1ccccc1-c1ccsc1)N[*:1])[*:2]; Phe(2-vinyl) = C=Cc1ccccc1C[C@H](N[*:1])C(=O)[*:2]; Phe(2-Ph) = N[C@@H](Cc1ccccc1-c1ccccc1)C(=O)O; Dmt = Cc1cc(O)cc(C)c1C[C@H](N)C(=O)O; dNMeA = CN[C@H](C)C(=O)O
Mark 1 only for IC50 in the guinea pig ileum (GPI) assay values smaller than 1 nM; exact matches and larger values are 0.

Answered examples (4):
binder	class-label
[Dmt][dR][Phe(2-(4-Cl-phenyl))]G-NH2 (N-terminus assumed; SMILES Cc1cc(O)cc(C)c1C[C@H](N)C(=O)N[C@H](CCCNC(=N)N)C(=O)N[C@@H](Cc1ccccc1-c1ccc(Cl)cc1)C(=O)NCC(N)=O) [Dmt-D-Arg-Phe(2-(4-Cl-phenyl))-Gly-NH2]	0
[Dmt][dR][Phe(2-(3-thienyl))]G-NH2 (N-terminus assumed; SMILES Cc1cc(O)cc(C)c1C[C@H](N)C(=O)N[C@H](CCCNC(=N)N)C(=O)N[C@@H](Cc1ccccc1-c1ccsc1)C(=O)NCC(N)=O) [Dmt-D-Arg-Phe(2-(3-thienyl))-Gly-NH2]	0
[Dmt][dA][Phe(2-vinyl)]G-NH2 (N-terminus assumed; SMILES C=Cc1ccccc1C[C@H](NC(=O)[C@@H](C)NC(=O)[C@@H](N)Cc1c(C)cc(O)cc1C)C(=O)NCC(N)=O) [Dmt-D-Ala-Phe(2-vinyl)-Gly-NH2]	0
[Dmt][dNMeA][Phe(2-vinyl)]G-NH2 (N-terminus assumed; SMILES C=Cc1ccccc1C[C@H](NC(=O)[C@@H](C)N(C)C(=O)[C@@H](N)Cc1c(C)cc(O)cc1C)C(=O)NCC(N)=O) [Dmt-N-Me-D-Ala-Phe(2-vinyl)-Gly-NH2]	1

# ---- query binder ----
Exam item: Field: below-cutoff. Rule: recorded IC50 in the guinea pig ileum (GPI) assay strictly less than 1 nM. Subject: [Dmt][dA][Phe(2-Ph)]G-NH2 (N-terminus assumed; SMILES Cc1cc(O)cc(C)c1C[C@H](N)C(=O)N[C@H](C)C(=O)N[C@@H](Cc1ccccc1-c1ccccc1)C(=O)NCC(N)=O) [Dmt-D-Ala-Phe(2-phenyl)-Gly-NH2]
Marked response: 0
